test system: blood glucose response; assay: A Glycemic Response Test; format: in vivo; conditions: 30 grams in water after fast; blood glucose every 15 minutes for 90 minutes
Measurement name: Glycemic test

OC[C@H]1O[C@@](CO)(O[C@H]2O[C@H](CO)[C@@H](O)[C@H](O)[C@H]2O)[C@@H](O)[C@@H]1O ... FAIL
